- measured.target: Prothrombin (Homo sapiens, UniProt P00734)
measured.attribute: pIC50
Answers are plain numbers, as −log10 of the molar value.

Enquiry: What reported pIC50 corresponds to CC(=O)OCC(=O)N1C(=O)C[C@@H]2[C@@H]1CCN2C(=O)OCc1ccccc1 on Prothrombin (Homo sapiens, UniProt P00734)?
Return: 5.21

The measured values listed here are drawn from ChEMBL document CHEMBL1132953.
